Biological target: human PCSK9 (Homo sapiens)
Assay: PCSK9 ligand binding TR-FRET assay (interference with binding of human PCSK9 to human LDLR)
Details: PCSK9 FRET assay, efficacy (Amax); 100% = 1 uM unlabeled human PCSK9, 0% = DMSO
Readout Name: Max % inhibition (%)

Check out these entries, answers already filled in.
[[record]]
compound = "COC[C@@H]1NC(=O)[C@H](CCC(=O)OC(C)(C)C)N(Cc2ccc(Cl)cc2Oc2ccc(-c3cnc(CN(C)C)n3C)cc2)C(=O)C[C@@H](Cc2ccccc2)C(=O)N(C)[C@@H](C)CNC(=O)C[C@H](Cc2ccc(Cl)cc2)N(C)C1=O"
experimental_system = "human PCSK9 (Homo sapiens)"
reported_result = 101.88

[[record]]
compound = "COC[C@@H]1NC(=O)[C@H](C)N(Cc2ccc(Cl)cc2Oc2ccc(-c3cnc(CN4CCCC4)n3C)cc2)C(=O)C[C@@H](Cc2ccccc2)C(=O)N(C)[C@@H](C)CNC(=O)C[C@H](Cc2ccc(Cl)cc2)NC1=O"
experimental_system = "human PCSK9 (Homo sapiens)"
reported_result = 79.36

[[record]]
compound = "Cc1c(CN2CCCC2)ncn1-c1ccc(Oc2cc(Cl)ccc2CN2C(=O)C[C@@H](Cc3ccccc3)C(=O)N(C)[C@H]3CCCC[C@@H]3NC(=O)C[C@H](Cc3ccc(Cl)cc3)N(C)C(=O)[C@H](CO)NC(=O)[C@@H]2C)cc1"
experimental_system = "human PCSK9 (Homo sapiens)"
reported_result = 109.05

[[record]]
compound = "COC[C@@H]1NC(=O)[C@H](CC(=O)N(C)C)N(Cc2ccc(Cl)cc2Oc2ccc(-c3cnc(CN(C)C)n3C)cc2)C(=O)C[C@@H](Cc2ccccc2)C(=O)N(C)[C@H]2CCCC[C@@H]2NC(=O)C[C@H](Cc2ccc(Cl)cc2)N(C)C1=O"
experimental_system = "human PCSK9 (Homo sapiens)"
reported_result = 97.18


1: COCC(=O)N1CCn2c(nnc2-c2ccc(Oc3cc(Cl)ccc3CN3C(=O)C[C@@H](Cc4ccccc4)C(=O)N(C)[C@@H](C)CNC(=O)C[C@H](Cc4ccc(Cl)cc4)N(C)C(=O)[C@H](COC)NC(=O)[C@@H]3C)cc2)C1
2: COC[C@@H]1NC(=O)[C@H](CCC(=O)O)N(Cc2ccc(Cl)cc2Oc2ccc(-c3cnc(CN(C)C)n3C)cc2)C(=O)C[C@@H](Cc2ccccc2)C(=O)N(C)[C@H]2CCCC[C@@H]2NC(=O)C[C@H](Cc2ccc(Cl)cc2)N(C)C1=O
Query: # returns the entry with the larger Max % inhibition; inputs 1 and 2 Write down the label of the entry you select.
Response: 2
(2: 104.03%, 1: 59.45%)

###

Target: human PCSK9 (Homo sapiens, UniProt Q8NBP7)
Sequence (Q8NBP7 153-692): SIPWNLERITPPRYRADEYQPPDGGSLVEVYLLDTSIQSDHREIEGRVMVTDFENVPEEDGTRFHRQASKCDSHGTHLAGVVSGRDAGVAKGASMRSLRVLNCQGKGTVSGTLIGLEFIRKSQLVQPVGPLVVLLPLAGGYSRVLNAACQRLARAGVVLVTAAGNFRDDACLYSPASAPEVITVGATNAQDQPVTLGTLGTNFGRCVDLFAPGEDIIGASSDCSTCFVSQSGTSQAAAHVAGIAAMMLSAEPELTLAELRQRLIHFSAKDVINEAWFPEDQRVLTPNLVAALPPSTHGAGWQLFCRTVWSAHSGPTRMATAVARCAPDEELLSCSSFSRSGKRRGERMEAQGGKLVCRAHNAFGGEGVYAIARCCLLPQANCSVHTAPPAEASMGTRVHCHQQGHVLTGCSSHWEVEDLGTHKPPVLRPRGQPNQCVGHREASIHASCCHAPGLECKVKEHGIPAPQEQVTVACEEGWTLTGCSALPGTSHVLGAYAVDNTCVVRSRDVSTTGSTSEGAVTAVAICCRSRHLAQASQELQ
Sequence (Q8NBP7 31-152 partner limits assumed): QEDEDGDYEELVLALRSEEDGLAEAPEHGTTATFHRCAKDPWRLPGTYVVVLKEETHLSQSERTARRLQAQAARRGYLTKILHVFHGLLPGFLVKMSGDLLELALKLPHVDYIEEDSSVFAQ
Assay: PCSK9 ligand binding TR-FRET assay (interference with binding of human PCSK9 to human LDLR)
Conditions: TR-FRET; human PCSK9 Alexa Fluor 647 / human LDLR extracellular domain-Europium Kryptate; read-out: PCSK9 FRET Assay IC50
pIC50: −log10 of the molar value.
Readout Name: pIC50

[[record]]
molecule = "C[C@H]1C(=O)N[C@@H](CO)C(=O)N(C)[C@@H](Cc2ccc(Cl)cc2)CC(=O)N[C@H]2CCCC[C@@H]2N(C)C(=O)[C@H](Cc2ccccc2)CC(=O)N1Cc1ccc(Cl)cc1Oc1ccc(-c2cnc(CN(C)C)n2C)cc1"
readout_name = "pIC50"
reported_result = 9.05


a: COC[C@@H]1NC(=O)[C@H](C)N(Cc2ccc(Cl)cc2Oc2ccc(-c3cnc(CN(C)C)n3C)cc2)C(=O)C[C@@H](CC2CCCCC2)C(=O)N(C)[C@@H](C)CNC(=O)C[C@H](Cc2ccc(Cl)cc2)N(C)C1=O
b: COC[C@@H]1NC(=O)[C@H](CCCN2CCCC2)N(Cc2ccc(Cl)cc2Oc2ccc(-c3cnc(CN(C)C)n3C)cc2)C(=O)C[C@@H](Cc2cccc[n+]2[O-])C(=O)N(C)[C@H]2CCCC[C@@H]2NC(=O)C[C@H](Cc2ccc(Cl)cc2)N(C)C1=O
c: COC[C@@H]1NC(=O)[C@H](C)N(Cc2ccc(Cl)cc2Oc2cccc(C(=O)NC3CCNCC3)c2)C(=O)C[C@@H](Cc2ccccc2)C(=O)N(C)[C@@H](C)CNC(=O)C[C@H](Cc2ccc(Cl)cc2)N(C)C1=O
Query: Ascending sort, pIC50. Show the ranking through the labels, in the order asked for.
Response: c, a, b

###

Molecular target: human PCSK9 (Homo sapiens, UniProt Q8NBP7)
Test: PCSK9 ligand binding TR-FRET assay (interference with binding of human PCSK9 to human LDLR)
Conditions: TR-FRET; human PCSK9 Alexa Fluor 647 / human LDLR extracellular domain-Europium Kryptate; read-out: PCSK9 FRET Assay IC50
Readout Name: IC50 (nM)

Study these solved cases before continuing.
[[record]]
molecule = "COC[C@@H]1NC(=O)[C@H](CC(F)(F)F)N(Cc2ccc(Cl)cc2Oc2ccc(-c3cnc(CN(C)C)n3C)cc2)C(=O)C[C@@H](Cc2ccccc2)C(=O)N(C)[C@@H](C)CNC(=O)C[C@H](Cc2ccc(Cl)cc2)N(C)C1=O"
reading_unit = "nM"
reported_result = 2.3

[[record]]
molecule = "COC[C@@H]1NC(=O)[C@H](C)N(Cc2ccc(Cl)cc2Oc2ccc(-c3cnc(CN4CCCC4)n3C)cc2)C(=O)C[C@@H](Cc2ccccc2)C(=O)N(C)[C@@H](CCCCN)CNC(=O)C[C@H](Cc2ccc(Cl)cc2)N(C)C1=O.O=C(O)C(F)(F)F [Compound 169, trifluoroacetate]"
reading_unit = "nM"
reported_result = 1.3

[[record]]
molecule = "COC[C@@H]1NC(=O)[C@H](C)N(Cc2ccc(Cl)cc2Oc2ccc(-c3cnc(CN(C)C)n3C)cc2)C(=O)C[C@@H](Cc2ccc(F)c[n+]2[O-])C(=O)N(C)[C@@H](C)CNC(=O)C[C@H](Cc2ccc(Cl)cc2)N(C)C1=O"
reading_unit = "nM"
reported_result = 3.1

[[record]]
molecule = "COC[C@@H]1NC(=O)[C@H](C)N(Cc2ccc(Cl)cc2Oc2ccc(-c3cnc(CN4CCCC4)n3C)cc2)C(=O)C[C@@H](Cc2cccc(F)c2)C(=O)N(C)[C@@H](C)CNC(=O)C[C@H](Cc2ccc(Cl)cc2)N(C)C1=O"
reading_unit = "nM"
reported_result = 0.8

[[record]]
molecule = "COC[C@H]1CNC(=O)C[C@H](Cc2ccc(Cl)cc2)N(C)C(=O)[C@H](COC)NC(=O)[C@H](C)N(Cc2ccc(Cl)cc2Oc2ccc(-c3cnc(CN(C)C)n3C)cc2)C(=O)C[C@@H](Cc2ccccc2)C(=O)N1C"
reading_unit = "nM"
reported_result = 1.1


a: COC[C@@H]1NC(=O)[C@H](C)N(Cc2ccc(Cl)cc2Oc2ccc(-c3cnc(CN4CCCC4)n3C)cc2)C(=O)C[C@@H](Cc2ccccc2)C(=O)N(C)[C@@H](C)[C@H](C)NC(=O)C[C@H](Cc2ccc(Cl)cc2)N(C)C1=O
b: CCC(O)c1ncc(-c2ccc(Oc3cc(Cl)ccc3CN3C(=O)C[C@@H](Cc4ccccc4)C(=O)N(C)[C@@H](C)CNC(=O)C[C@H](Cc4ccc(Cl)cc4)N(C)C(=O)[C@H](COC)NC(=O)[C@@H]3C)cc2)n1C (some centres unmarked)
Query: When their IC50 values are compared, which is larger, a or b ? Kindly state the label of the option you pick.
Response: b

###

Biological target: human PCSK9 (Homo sapiens, UniProt Q8NBP7)
Assay: PCSK9 ligand binding TR-FRET assay (interference with binding of human PCSK9 to human LDLR)
Details: PCSK9 FRET assay, efficacy (Amax); 100% = 1 uM unlabeled human PCSK9, 0% = DMSO
Readout Name: Max % inhibition (%)

Example cases with answers are listed next.
[[record]]
molecule = "COC[C@@H]1NC(=O)[C@H](C)N(Cc2ccc(Cl)cc2Oc2c(F)cc(-c3cnc(CN4CCCC4)n3C)cc2F)C(=O)C[C@@H](Cc2ccccc2)C(=O)N(C)[C@@H](C)CNC(=O)C[C@H](Cc2ccc(Cl)cc2)N(C)C1=O"
experimental_system = "human PCSK9 (Homo sapiens, UniProt Q8NBP7)"
reported_result = 99.00

[[record]]
molecule = "C=CC[C@@H]1CC(=O)N(Cc2ccc(Cl)cc2Oc2ccc(-c3cnc(CN(C)C)n3C)cc2)[C@@H](C)C(=O)N[C@@H](COC)C(=O)N(C)[C@@H](Cc2ccc(Cl)cc2)CC(=O)NC[C@H](C)N(C)C1=O"
experimental_system = "human PCSK9 (Homo sapiens, UniProt Q8NBP7)"
reported_result = 102.15


A: COC[C@@H]1NC(=O)[C@H](CC(F)F)N(Cc2ccc(Cl)cc2Oc2ccc(-c3cnc(CN4CCCC4)n3C)cc2)C(=O)C[C@@H](Cc2ccccc2)C(=O)N(C)[C@@H](C)CNC(=O)C[C@H](Cc2ccc(Cl)cc2)N(C)C1=O
B: CC=CC[C@@H]1CC(=O)N(Cc2ccc(Cl)cc2Oc2ccc(-c3cnc(CN(C)C)n3C)cc2)[C@@H](C)C(=O)N[C@@H](COC)C(=O)N(C)[C@@H](Cc2ccc(Cl)cc2)CC(=O)N[C@H]2CCCC[C@@H]2N(C)C1=O
Query: Hi there, can you help? I need to know whether A or B has lower measured Max % inhibition. Please identify the chosen entry by its label.
Response: B
